Entry source: patent US20210355194A1

Biological target: ACE2 (human, UniProt Q9BYF1 18-740)
Sequence (Q9BYF1 18-740 limits assumed): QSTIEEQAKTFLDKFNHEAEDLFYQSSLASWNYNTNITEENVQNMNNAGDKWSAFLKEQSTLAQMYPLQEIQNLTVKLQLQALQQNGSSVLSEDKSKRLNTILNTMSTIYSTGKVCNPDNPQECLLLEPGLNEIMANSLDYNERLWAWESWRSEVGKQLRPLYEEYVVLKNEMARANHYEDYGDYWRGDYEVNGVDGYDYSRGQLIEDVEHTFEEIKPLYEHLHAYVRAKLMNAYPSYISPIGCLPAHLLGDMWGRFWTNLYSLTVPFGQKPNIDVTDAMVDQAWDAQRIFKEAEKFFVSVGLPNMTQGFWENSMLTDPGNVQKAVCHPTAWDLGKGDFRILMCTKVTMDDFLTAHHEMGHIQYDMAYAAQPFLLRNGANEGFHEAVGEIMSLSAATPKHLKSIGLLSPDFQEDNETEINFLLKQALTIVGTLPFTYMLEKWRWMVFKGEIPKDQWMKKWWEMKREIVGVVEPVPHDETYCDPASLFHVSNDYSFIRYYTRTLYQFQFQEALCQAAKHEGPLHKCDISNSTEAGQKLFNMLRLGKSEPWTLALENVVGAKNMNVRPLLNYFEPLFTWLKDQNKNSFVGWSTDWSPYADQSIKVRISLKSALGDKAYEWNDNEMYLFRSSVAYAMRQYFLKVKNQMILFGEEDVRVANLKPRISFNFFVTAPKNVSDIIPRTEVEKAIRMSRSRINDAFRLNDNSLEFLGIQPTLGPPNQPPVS
measurement_type: kon (M⁻¹ s⁻¹)
# output: bare number, implied unit M⁻¹ s⁻¹

Example entries and their recorded answers appear below.
>  <binder>
ACE2 variant antibody 3-12 (antibody, V domains shown) VH: EVQLLESGGGLVQPGGSLRLSCAASGFTFRSHAMNWVRQAPGKGLEWVSAISGSGGSTNYADSVKGRFTISRDNSKNTLYLQMNSLRAEDTAVYYCARGLKFLEWLPSAFDIWGQGTLVTVSS VL: DIQMTQSPSSLSASVGDRVTITCRTSQSINTYLNWYQQKPGKAPKLLIYGASNVQSGVPSRFSGSGSGTDFTLTISSLQPEDFATYYCQQSYRIPRTFGQGTKVEIK

>  <units_label>
M⁻¹ s⁻¹

>  <kon>
15500

$$$$
>  <binder>
ACE2 variant antibody 3-13 (antibody, V domains shown) VH: EVQLLESGGGLVQPGGSLRLSCAASGFTITNYAMSWVRQAPGKGLEWVSGISGSGAGTYYADSVKGRFTISRDNSKNTLYLQMNSLRAEDTAVYYCARHTWWKGAGFFDHWGQGTLVTVSS VL: DIQMTQSPSSLSASVGDRVTITCRASQSIGRYLNWYQQKPGKAPKLLIYAASSLKSGVPSRFSGSGSGTDFTLTISSLQPEDFATYYCQQSYSLPRTFGQGTKVEIK

>  <units_label>
M⁻¹ s⁻¹

>  <kon>
80900

$$$$

// switching to the query binder
Lookup: Report kon for ACE2 variant antibody 3-9 (antibody, V domains shown) VH: EVQLLESGGGLVQPGGSLRLSCAASGFTFRSYAMSWVRQAPGKGLEWVSSISGGGASTYYADSVKGRFTISRDNSKNTLYLQMNSLRAEDTAVYYCARVKYLTTSSGWPRPYFDNWGQGTLVTVSS VL: DIQMTQSPSSLSASVGDRVTITCRASQSIGKYLNWYQQKPGKAPKLLIYASSTLQRGVPSRFSGSGSGTDFTLTISSLQPEDFATYYCQQSFSTPFTFGQGTKVEIK please.
Found: 83600
